Please provide measured Velvetleaf plant response rating for the entries that follow.
Tested on: velvetleaf
Assay Summary: Test B pre-/postemergence herbicide test
Assay type: in vivo, Abutilon theophrasti
Test Parameters: 125 g ai/ha; visual rating, scale 0 (no effect) to 100 (complete control); postemergence
Number only, please.

Exercise: Given the compound `CCc1nn(C(C)C)nc1C(=O)Nc1cccc(C(=O)N(C)CC)c1` , write its reported Velvetleaf plant response rating.
Key: 40

Exercise: Given the compound `CCc1nn(C(C)C)nc1C(=O)Nc1cccc(C(=O)N2CCCCC2)c1` , write its reported Velvetleaf plant response rating.
Key: 20

Exercise: Given the compound `CCNC(=O)c1ccc(F)c(NC(=O)c2nn(C(C)C)nc2C)c1` , write its reported Velvetleaf plant response rating.
Key: 0

Exercise: Given the compound `Cc1nn(C(C)(C)C)nc1C(=O)Nc1cc(C(=O)N(C)C)ccc1F` , write its reported Velvetleaf plant response rating.
Key: 10

Exercise: Given the compound `CCc1nn(C(C)(C)C)nc1C(=O)Nc1cccc(C(=O)N(C)C)c1` , write its reported Velvetleaf plant response rating.
Key: 20

---

System: woolly cupgrass
Assay Summary: Test C pre-/postemergence herbicide test
Format: in vivo, Eriochloa villosa
Test Parameters: 250 g ai/ha; scale 0-100; preemergence
Source text: […]
Endpoint Name: Plant response rating, Cupgrass, Woolly
Number only, please.

Exercise: Given the compound `C=CCNC(=O)c1cccc(NC(=O)c2cc(C(C)(C)C)nn2C)n1` , write its reported Plant response rating, Cupgrass, Woolly.
Key: 0

Exercise: Given the compound `CCn1nc(C(C)(C)C)cc1C(=O)Nc1ccc(OC)c(OC)c1` , write its reported Plant response rating, Cupgrass, Woolly.
Key: 30

Exercise: Given the compound `CCNC(=O)c1ccc(F)c(NC(=O)c2cn(C(C)(C)C)nc2CC)c1` , write its reported Plant response rating, Cupgrass, Woolly.
Key: 60

Exercise: Given the compound `CCNC(=O)c1ccc(F)c(NC(=O)c2cc(C3(C)CC3)nn2CC)c1` , write its reported Plant response rating, Cupgrass, Woolly.
Key: 60

---

System: barnyardgrass
Assay Summary: Test A pre-/postemergence herbicide test
Type: in vivo, Echinochloa crus-galli
Test Parameters: preemergence, 500 g ai/ha; visual injury, 0 to 100 scale (0 no effect, 100 complete control)
Please provide measured Barnyardgrass plant response rating for the entries that follow.
Number only, please.

Exercise: Given the compound `CC(=O)c1cccc(NC(=O)c2sc(C(C)(C)C)nc2C)c1` , write its reported Barnyardgrass plant response rating.
Key: 15

Exercise: Given the compound `CCc1nc(C(C)(C)C)sc1C(=O)Nc1cccc(C(=O)NCC2CC2)c1` , write its reported Barnyardgrass plant response rating.
Key: 80

Exercise: Given the compound `C=CCNC(=O)c1cccc(NC(=O)c2cc(C(C)(C)C)nn2C)n1` , write its reported Barnyardgrass plant response rating.
Key: 65

Exercise: Given the compound `CCc1nc(C(C)(C)C)sc1C(=O)Nc1cccc(C(=O)N(CC)CC)c1` , write its reported Barnyardgrass plant response rating.
Key: 80

Exercise: Given the compound `CCc1nc(C(C)(C)C)sc1C(=O)Nc1cccc(C(=O)N(CC)CC)n1` , write its reported Barnyardgrass plant response rating.
Key: 0

---

Tested on: large crabgrass
Assay Summary: Test A pre-/postemergence herbicide test
Format: in vivo, Digitaria sanguinalis
Test Parameters: preemergence, 500 g ai/ha; visual injury, 0 to 100 scale (0 no effect, 100 complete control)
Endpoint Name: Crabgrass, Large plant response rating
Number only, please.

Exercise: Given the compound `Cc1nn(C(C)(C)C)cc1C(=O)Nc1cccc(OC(C)C)c1` , write its reported Crabgrass, Large plant response rating.
Key: 55

Exercise: Given the compound `CCn1nc(C(C)(C)C)cc1C(=O)Nc1nc(C(=O)N2CC=CC2)ccc1F` , write its reported Crabgrass, Large plant response rating.
Key: 20

Exercise: Given the compound `CCSCNC(=O)c1cccc(NC(=O)c2cc(C(C)(C)C)nn2CC)c1` , write its reported Crabgrass, Large plant response rating.
Key: 0

Exercise: Given the compound `CCc1nc(C(C)(C)C)sc1C(=O)Nc1cccc(C(=O)NC(C)(C)C)n1` , write its reported Crabgrass, Large plant response rating.
Key: 15

Exercise: Given the compound `C=CCNC(=O)c1cccc(NC(=O)c2cc(C(C)(C)C)nn2C)n1` , write its reported Crabgrass, Large plant response rating.
Key: 55

Exercise: Given the compound `CCn1nc(C(C)(C)C)cc1C(=O)Nc1ccnc(C(=O)N2CC=CC2)c1` , write its reported Crabgrass, Large plant response rating.
Key: 40

Exercise: Given the compound `CCn1nc(C(C)(C)C)cc1C(=O)Nc1cncc(C(=O)N2CC=CC2)n1` , write its reported Crabgrass, Large plant response rating.
Key: 5

Exercise: Given the compound `C#CCNC(=O)c1cncc(NC(=O)c2cc(C(C)(C)C)nn2CC)n1` , write its reported Crabgrass, Large plant response rating.
Key: 0

Exercise: Given the compound `CC(=NO)c1cccc(NC(=O)c2cc(C(C)(C)C)n[nH]2)c1` , write its reported Crabgrass, Large plant response rating.
Key: 0

Exercise: Given the compound `C#CCNC(=O)c1cccc(NC(=O)c2sc(C(C)(C)C)nc2CC)c1` , write its reported Crabgrass, Large plant response rating.
Key: 85
